target: Quinolone resistance protein NorA (Staphylococcus aureus) (UniProt P0A0J7); assay: Inhibition of NorA in Staphylococcus aureus SA-1199B expressing GrlA A116E mutant assessed as reduction in EtBr efflux at 50 uM incubated for 5 mins by fluorescence based assay
Experimental endpoint: inhibition (%)
Give just the numeric value; % need not be written.

Incoming: Tell me measured inhibition for "CCCOc1ccc(-c2cc(O)c3cc(OC)c(OC)cc3n2)cc1" please.
Outgoing: 79.2

Incoming: Tell me measured inhibition for "CCCOc1ccc(-c2cc(O)c3c(OC)cccc3n2)cc1" please.
Outgoing: 91.4

Incoming: Tell me measured inhibition for "CCCOc1ccc(-c2cc(OCCN3CCCCC3)c3cc(OC)c(OC)cc3n2)cc1" please.
Outgoing: 92.1

Incoming: Tell me measured inhibition for "CCCOc1ccc(-c2cc(OCCN3CCCCCC3)c3cc(OC)ccc3n2)cc1" please.
Outgoing: 92.2

Incoming: Tell me measured inhibition for "CCCOc1ccc(-c2cc(OCCN3CCc4cc(OC)c(OC)cc4C3)c3ccc(OC)cc3n2)cc1" please.
Outgoing: 91

Incoming: Tell me measured inhibition for "CCCOc1ccc(-c2cc(OCCN3CCCCC3)c3cc(OC)cc(OC)c3n2)cc1" please.
Outgoing: 93.8

Incoming: Tell me measured inhibition for "CCCOc1ccc(-c2cc(OCCCN(C)C)c3cccc(OC)c3n2)cc1" please.
Outgoing: 64.7

Incoming: Tell me measured inhibition for "CCCOc1ccc(-c2cc(OCCN3CCCCC3)c3cccc(OC)c3n2)cc1" please.
Outgoing: 88.7

Incoming: Tell me measured inhibition for "CCCOc1ccc(-c2cc(OCCN3CCNCC3)c3cc(OC)ccc3n2)cc1" please.
Outgoing: 84.4

Incoming: Tell me measured inhibition for "CCCOc1ccc(-c2cc(OCCCN(C)C)c3cc(OC)ccc3n2)cc1" please.
Outgoing: 79.5

Incoming: Tell me measured inhibition for "CCCOc1ccc(-c2cc(O)c3ccc(OC)cc3n2)cc1" please.
Outgoing: 55.7

Incoming: Tell me measured inhibition for "CCCOc1ccc(-c2cc(OCCCN(C)C)c3ccc(OC)cc3n2)cc1" please.
Outgoing: 100

Incoming: Tell me measured inhibition for "CCCOc1ccc(-c2cc(OCCN3CCc4cc(OC)c(OC)cc4C3)c3c(OC)cc(OC)cc3n2)cc1" please.
Outgoing: 86.5

Incoming: Tell me measured inhibition for "CCCOc1ccc(-c2cc(OCCN3CCCCCC3)c3ccc(OC)cc3n2)cc1" please.
Outgoing: 91.3

Incoming: Tell me measured inhibition for "CCCOc1ccc(-c2cc(OCCN3CCNCC3)c3cccc(OC)c3n2)cc1" please.
Outgoing: 100

Incoming: Tell me measured inhibition for "CCCOc1ccc(-c2cc(OCCN(CC)CC)c3cc(OC)ccc3n2)cc1" please.
Outgoing: 99

Incoming: Tell me measured inhibition for "CCCOc1ccc(-c2cc(OCCN3CCCCCC3)c3cccc(OC)c3n2)cc1" please.
Outgoing: 72.8

Incoming: Tell me measured inhibition for "CCCOc1ccc(-c2cc(OCCN3CCCCC3)c3cc(OC)ccc3n2)cc1" please.
Outgoing: 97.6

Incoming: Tell me measured inhibition for "CCCOc1ccc(-c2cc(OCCN(CC)CC)c3cc(OC)c(OC)cc3n2)cc1" please.
Outgoing: 95.4

Incoming: Tell me measured inhibition for "CCCOc1ccc(-c2cc(OCCN3CCN(Cc4ccccc4)CC3)c3cc(OC)ccc3n2)cc1" please.
Outgoing: 32

Incoming: Tell me measured inhibition for "CCCOc1ccc(-c2cc(OCCN3CCc4cc(OC)c(OC)cc4C3)c3cccc(OC)c3n2)cc1" please.
Outgoing: 65.5
